Hey, just so you know, these numbers are from the supplement of paper PMC5998384.

- Test system: HeLa Kyoto;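 note: synchronized HeLa Kyoto cells, proteins quantified by TMT10plex mass spectrometry, three biological replicates, mitosis taken 0.5 h after nocodazole release, G1/S directly after double thymidine block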
- assay summary: thermal stability score vs G1/S (z-score of summed log2 fold changes over temperatures); higher = more thermally stable than in G1/S
- stated conditions: cell cycle stage: early G1 (4.5 h after nocodazole release)
Entries and their thermal stability score

{"residue codes": "MAPGVARGPTPYWRLRLGGAALLLLLIPVAAAQEPPGAACSQNTNKTCEECLKNVSCLWCNTNKACLDYPVTSVLPPASLCKLSSARWGVCWVNFEALIITMSVVGGTLLLGIAICCCCCCRRKRSRKPDRSEEKAMREREERRIRQEERRAEMKTRHDEIRKKYGLFKEENPYARFENN [PTTG1IP]", "assay target": "HeLa Kyoto", "thermal stability score": -5.97}
{"residue codes": "MRFLAATFLLLALSTAAQAEPVQFKDCGSVDGVIKEVNVSPCPTQPCQLSKGQSYSVNVTFTSNIQSKSSKAVVHGILMGVPVPFPIPEPDGCKSGINCPIQKDKTYSYLNKLPVKSEYPSIKLVVEWQLQDDKNQSLFCWEIPVQIVSHL [NPC2]", "assay target": "HeLa Kyoto", "thermal stability score": -3.22}
